Experiment: qHTS Assay for Lipid Storage Modulators (AID 1519); note: % is set by controls: 0 for no effect and ±100 for the full control effect
Conditions: Drosophila S3 cells, BODIPY lipid droplet/cell ratio, laser cytometry; at 57.5 µM (top of the series); cells loaded with oleic acid
Inconclusive results are not listed.
Listing: activity change, negative = inhibition of selected compounds
assay-metric: activity change, negative = inhibition (%)

INSERT INTO assay_data (compound, endpoint_value) VALUES
  ('N[C@@H](Cc1cnc[nH]1)C(=O)O', 2.39),
  ('C[C@@H]1C(=O)NC2=Nc3cccc(Cl)c3CN21', 2.07),
  ('Cc1c(C(N)=O)cc([N+](=O)[O-])cc1[N+](=O)[O-]', 9.82),
  ('Cc1ccc(C(=O)C(C)CN2CCCCC2)cc1 (stereo unspecified)', 1.11),
  ('OCc1ccccc1O', 1.86),
  ('CNCCC(Oc1ccccc1C)c1ccccc1 (stereo unspecified)', 2.16),
  ('CC(C)(CO)[C@@H](O)C(=O)NCCCO', 2.51),
  ('CN=C(NC#N)NCCSCc1csc(N=C(N)N)n1', 3.24),
  ('CCCC(=O)Nc1ccc(OCC(O)CNC(C)C)c(C(C)=O)c1 (stereo unspecified)', 5.02),
  ('O=C(OCC(O)CO)c1ccccc1Nc1ccnc2cc(Cl)ccc12 (stereo unspecified)', 0.748),
  ('CCN(CCCCOC(=O)c1ccc(OC)c(OC)c1)C(C)Cc1ccc(OC)cc1 (stereo unspecified)', 3.28),
  ('CCN(CCCc1ccccc1)CCCc1ccccc1', 3.79),
  ('CN(C)/N=N/c1nc[nH]c1C(N)=O', 6.55),
  ('CC(=O)N(O)CCCCCNC(=O)CCC(=O)N(O)CCCCCNC(=O)CCC(=O)N(O)CCCCCN', 6.43),
  ('CCN(CC)CCOC(=O)C(c1ccccc1)C1CCCCC1 (stereo unspecified)', -0.866),
  ('Cc1c(N(C)CS(=O)(=O)O)c(=O)n(-c2ccccc2)n1C', 9.06),
  ('Nc1ccc(C(=O)O)cc1', 6.97),
  ('C/C=C(/C(=C/C)c1ccc(O)cc1)c1ccc(O)cc1', 15.3),
  ('COc1cc(OC)cc(OC)c1', 0.768),
  ('CC/C(=C(/CC)c1ccc(O)cc1)c1ccc(O)cc1', 9.04),
  ('CCCCC1=NC2(CCCC2)C(=O)N1Cc1ccc(-c2ccccc2-c2nn[nH]n2)cc1', -6.83),
  ('Cc1cc(=O)n(-c2ccccc2)n1C', 0.266),
  ('CCCCCCCCCCCCCCCCOP(=O)([O-])OCC[N+](C)(C)C', 6.36),
  ('CN(C(=O)CN(CCO)CC(=O)N(C)C(C)(C)Cc1ccccc1)C(C)(C)Cc1ccccc1', 4.59),
  ('CCCCOc1ccc(C(=O)CCN2CCCCC2)cc1', -7.63),
  ('Oc1c(I)cc(Cl)c2cccnc12', 2.97);

Value source: PubChem BioAssay (NCATS)
